meta.source: patent US20150307491A1

Item-by-item account of IC50
Target: Flt3 kinase (Homo sapiens)
Sequence (P36888 564-993 limits assumed): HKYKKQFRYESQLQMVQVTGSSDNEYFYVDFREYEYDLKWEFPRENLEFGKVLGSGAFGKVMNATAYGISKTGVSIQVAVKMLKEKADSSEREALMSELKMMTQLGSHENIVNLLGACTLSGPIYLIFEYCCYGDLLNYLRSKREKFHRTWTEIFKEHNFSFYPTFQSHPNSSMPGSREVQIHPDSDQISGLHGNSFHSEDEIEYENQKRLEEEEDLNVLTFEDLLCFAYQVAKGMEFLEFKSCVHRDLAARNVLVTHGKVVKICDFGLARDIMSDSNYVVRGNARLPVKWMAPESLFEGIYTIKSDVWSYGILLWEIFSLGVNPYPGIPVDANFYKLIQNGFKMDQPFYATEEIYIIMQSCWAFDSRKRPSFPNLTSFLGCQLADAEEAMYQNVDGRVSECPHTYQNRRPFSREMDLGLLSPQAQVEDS
Give just the number in nM; leave the unit off.

molecule-smiles | IC50, nM
CS(=O)(=O)N1CCC(c2ccc(-c3cc4nccnc4c(OC[C@@H]4CN(S(C)(=O)=O)CCO4)n3)cc2)CC1 | 1640

Lab note: next molecule to report on.
The molecule `CN(C)c1ccc(-c2cc3nccnc3c(OC[C@@H]3CN(C(=O)[C@H]4CCOC4)CCO3)n2)cc1` , when measured on Flt3 kinase (Homo sapiens), yielded IC50 of 2820
